measurement target: Muscarinic acetylcholine receptor M2 (Homo sapiens); also: assay procedure not described here
Sequence (P08172 whole entry): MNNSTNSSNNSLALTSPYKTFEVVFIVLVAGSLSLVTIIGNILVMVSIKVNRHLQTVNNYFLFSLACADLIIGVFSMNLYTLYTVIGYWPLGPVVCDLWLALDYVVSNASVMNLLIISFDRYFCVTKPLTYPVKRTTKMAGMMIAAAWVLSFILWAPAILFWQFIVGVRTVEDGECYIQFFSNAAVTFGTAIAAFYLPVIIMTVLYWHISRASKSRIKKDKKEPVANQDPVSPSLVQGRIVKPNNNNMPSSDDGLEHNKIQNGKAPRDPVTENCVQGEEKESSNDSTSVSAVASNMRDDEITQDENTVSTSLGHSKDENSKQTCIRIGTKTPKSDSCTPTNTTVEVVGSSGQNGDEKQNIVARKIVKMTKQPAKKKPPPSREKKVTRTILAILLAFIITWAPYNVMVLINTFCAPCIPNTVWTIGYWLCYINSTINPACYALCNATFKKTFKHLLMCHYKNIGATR
Assay type: functional, cell-based
Listed molecules paired with reported AC50
readout: AC50

1) C/C(=C\C(=O)OCCCCCCCCC(=O)O)C[C@@H]1OC[C@H](C[C@@H]2O[C@H]2[C@@H](C)[C@H](C)O)[C@@H](O)[C@H]1O [MUPIROCIN] | > 10 µM
2) CCN(CC)CCN1C(=O)CN=C(c2ccccc2F)c2cc(Cl)ccc21 [FLURAZEPAM] | > 10 µM
3) O=C1CN=C(c2ccccc2)c2cc([N+](=O)[O-])ccc2N1 [NITRAZEPAM] | > 10 µM
4) C[C@]12CC[C@@H]3c4ccc(O)cc4C[C@@H](CCCCCCCCC[S+]([O-])CCCC(F)(F)C(F)(F)F)[C@H]3[C@@H]1CC[C@@H]2O (some centres undefined) [FULVESTRANT] | > 30 µM

====

measurement target: Cannabinoid receptor 1 (Homo sapiens); also: assay procedure not described here
Sequence (P21554 whole entry): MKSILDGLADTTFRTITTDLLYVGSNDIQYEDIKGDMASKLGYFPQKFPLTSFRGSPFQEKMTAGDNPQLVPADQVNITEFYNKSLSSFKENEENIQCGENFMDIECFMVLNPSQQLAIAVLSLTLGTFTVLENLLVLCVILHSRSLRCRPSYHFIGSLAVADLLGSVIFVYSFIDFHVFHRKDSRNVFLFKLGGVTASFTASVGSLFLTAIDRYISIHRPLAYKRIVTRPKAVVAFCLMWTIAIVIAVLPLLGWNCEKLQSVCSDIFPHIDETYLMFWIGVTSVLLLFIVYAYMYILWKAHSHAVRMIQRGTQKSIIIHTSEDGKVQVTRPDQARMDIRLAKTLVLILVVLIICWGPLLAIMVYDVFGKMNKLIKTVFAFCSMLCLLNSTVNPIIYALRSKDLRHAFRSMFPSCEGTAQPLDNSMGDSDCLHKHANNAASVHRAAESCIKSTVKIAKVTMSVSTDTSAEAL
Assay type: functional
readout: AC50

1. CO[C@H]1/C=C/O[C@@]2(C)Oc3c(C)c(O)c4c(O)c(c(/C=N/N5CCN(C)CC5)c(O)c4c3C2=O)NC(=O)/C(C)=C\C=C\[C@H](C)[C@H](O)[C@@H](C)[C@@H](O)[C@@H](C)[C@H](OC(C)=O)[C@@H]1C | > 10 µM
2. Cn1c(=O)cc(N2CCC[C@@H](N)C2)n(Cc2ccccc2C#N)c1=O | > 10 µM
3. CC(N)C(O)c1ccccc1 (centres undefined) | > 10 µM
4. CC(C)Cc1ccc(C(C)C(=O)O)cc1 (centres undefined) | > 10 µM

====

measurement target: Estrogen receptor (Homo sapiens); also: assay procedure not described here
Sequence (P03372 whole entry): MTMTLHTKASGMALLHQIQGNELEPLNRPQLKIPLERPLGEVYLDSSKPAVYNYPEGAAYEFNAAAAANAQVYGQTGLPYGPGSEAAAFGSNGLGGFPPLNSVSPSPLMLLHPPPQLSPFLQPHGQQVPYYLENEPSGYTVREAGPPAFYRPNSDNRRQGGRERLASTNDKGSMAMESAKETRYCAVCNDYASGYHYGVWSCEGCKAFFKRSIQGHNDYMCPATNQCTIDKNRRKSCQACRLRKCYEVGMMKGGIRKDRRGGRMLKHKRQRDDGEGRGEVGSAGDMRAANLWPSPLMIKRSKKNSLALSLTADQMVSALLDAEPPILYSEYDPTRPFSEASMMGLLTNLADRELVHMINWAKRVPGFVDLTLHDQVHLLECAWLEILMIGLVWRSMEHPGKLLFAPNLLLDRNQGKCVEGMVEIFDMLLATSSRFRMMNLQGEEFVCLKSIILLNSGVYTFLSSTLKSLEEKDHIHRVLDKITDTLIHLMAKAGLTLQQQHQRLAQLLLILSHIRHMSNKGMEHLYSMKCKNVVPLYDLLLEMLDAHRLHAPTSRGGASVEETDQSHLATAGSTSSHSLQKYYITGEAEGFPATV
Assay type: functional
readout: AC50

1. COc1cc2nccc(Oc3ccc(NC(=O)C4(C(=O)Nc5ccc(F)cc5)CC4)cc3)c2cc1OC [CABOZANTINIB] | > 30 µM
2. C[C@@H](Oc1cc(-c2cnn(C3CCNCC3)c2)cnc1N)c1c(Cl)ccc(F)c1Cl | > 30 µM
3. N[C@@H](CC(=O)N1CCn2c(nnc2C(F)(F)F)C1)Cc1cc(F)c(F)cc1F | > 30 µM
4. CCN1CCN(Cc2ccc(Nc3ncc(F)c(-c4cc(F)c5nc(C)n(C(C)C)c5c4)n3)nc2)CC1 | > 30 µM
5. CN1C[C@H](C(=O)N[C@]2(C)O[C@@]3(O)[C@@H]4CCCN4C(=O)[C@H](Cc4ccccc4)N3C2=O)C=C2c3cccc4[nH]cc(c34)C[C@H]21 | > 30 µM
6. CC(C)c1nc(N(C)S(C)(=O)=O)nc(-c2ccc(F)cc2)c1/C=C/[C@@H](O)C[C@@H](O)CC(=O)O | > 30 µM
7. C=CC[C@@H]1/C=C(\C)C[C@H](C)C[C@H](OC)[C@H]2O[C@@](O)(C(=O)C(=O)N3CCCC[C@H]3C(=O)O[C@H](/C(C)=C/[C@@H]3CC[C@@H](O)[C@H](OC)C3)[C@H](C)[C@@H](O)CC1=O)[C@H](C)C[C@@H]2OC [TACROLIMUS ANHYDROUS] | > 30 µM
8. C[C@H](CCC(=O)O)[C@H]1CC[C@H]2[C@@H]3[C@@H](O)C[C@@H]4C[C@H](O)CC[C@]4(C)[C@H]3CC[C@]12C | > 30 µM

====

Let's go through some recorded AC50 values for Melanocortin receptor 3 (Homo sapiens) together.
readout: AC50

1) CC12CC3CC(C)(C1)CC(N)(C3)C2 [MEMANTINE] | > 30 µM
2) O=C1CN=C(c2ccccc2)c2cc([N+](=O)[O-])ccc2N1 | > 10 µM
3) CCC(C)C1(CC)C(=O)NC(=O)NC1=O (stereo not given) | > 30 µM
4) Cc1cc(C(C)(C)C)cc(C)c1CC1=NCCN1 | > 30 µM
5) CCCCC(=O)O[C@]1(C(=O)CO)[C@@H](C)C[C@H]2[C@@H]3CCC4=CC(=O)C=C[C@]4(C)[C@@]3(F)[C@@H](O)C[C@@]21C [BETAMETHASONE VALERATE] | > 30 µM
6) Nc1cc(-c2ccncc2)c[nH]c1=O | > 30 µM
7) CN(C)CCCNc1c2ccccc2nc2cccc([N+](=O)[O-])c12 | > 30 µM
8) O=C1CN(/N=C/c2ccc(-c3ccc([N+](=O)[O-])cc3)o2)C(O)=N1 | > 10 µM
9) OCc1cc(C(O)CNCCCCCCOCCCCc2ccccc2)ccc1O (stereo not given) | > 30 µM
10) CC(C)N(CCC(C(N)=O)(c1ccccc1)c1ccccn1)C(C)C (stereo not given) [DISOPYRAMIDE] | > 30 µM

====

List of AC50 tested on Beta-2 adrenergic receptor (Homo sapiens, UniProt P07550). Also: assay procedure not described here.
Sequence (P07550 whole entry): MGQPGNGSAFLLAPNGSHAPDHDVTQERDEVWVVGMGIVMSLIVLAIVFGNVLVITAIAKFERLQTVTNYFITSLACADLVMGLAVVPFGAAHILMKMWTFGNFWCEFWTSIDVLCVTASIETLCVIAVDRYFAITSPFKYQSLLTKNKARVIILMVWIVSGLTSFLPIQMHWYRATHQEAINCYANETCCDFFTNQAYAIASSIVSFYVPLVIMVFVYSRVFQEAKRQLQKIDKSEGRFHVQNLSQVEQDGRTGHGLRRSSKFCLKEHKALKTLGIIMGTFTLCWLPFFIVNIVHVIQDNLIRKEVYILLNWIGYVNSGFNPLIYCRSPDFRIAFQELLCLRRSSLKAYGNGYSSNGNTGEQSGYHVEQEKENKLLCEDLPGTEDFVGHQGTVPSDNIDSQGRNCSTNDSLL
readout: AC50

1) [H]/N=C(/N)N/C(=N/[H])NCCc1ccccc1 | > 10 µM
2) COc1ccc(CC2c3cc(OC)c(OC)cc3CC[N+]2(C)CCC(=O)OCCCCCOC(=O)CC[N+]2(C)CCc3cc(OC)c(OC)cc3C2Cc2ccc(OC)c(OC)c2)cc1OC (stereo not drawn) | > 30 µM
3) CN1CCN(C2=Nc3ccccc3Oc3ccc(Cl)cc32)CC1 | 8.8 µM
4) O=C1CCc2cc(OCCCCc3nnnn3C3CCCCC3)ccc2N1 | > 30 µM
5) COc1ccc(-c2noc(CC(=O)O)c2-c2ccc(OC)cc2)cc1 | > 30 µM
6) CN(C)CC[C@@H](c1ccc(Cl)cc1)c1ccccn1 | > 30 µM
7) COc1cc2c(cc1OC)C(CCc1ccc(Cl)cc1)N(C)CC2 (stereo not drawn) | > 30 µM
8) Cc1onc(-c2ccccc2)c1-c1ccc(S(N)(=O)=O)cc1 | 21.1 µM
9) Clc1ccc2c(N3CCN(CCCN4CCN(c5ccnc6cc(Cl)ccc56)CC4)CC3)ccnc2c1 | > 30 µM
10) CCOC(=O)C1=C(C)NC(C)=C(C(=O)OC)C1c1cccc([N+](=O)[O-])c1 (stereo not drawn) | > 10 µM
11) Cc1cc2cc3c(C)cc(=O)oc3c(C)c2o1 | > 10 µM
12) CCc1cc(C(N)=S)ccn1 [ETHIONAMIDE] | > 10 µM
13) NC1CCN(c2nc3c(cc2F)c(=O)c(C(=O)O)cn3-c2ccc(F)cc2F)C1 (stereo not drawn) | > 30 µM
14) CC1OC2(CS1)CN1CCC2CC1 (stereo not drawn) | > 10 µM
15) COc1cc(N)c(Cl)cc1C(=O)NC1CCN(Cc2ccccc2)CC1 [CLEBOPRIDE] | > 30 µM
16) CCC(COC(=O)c1cc(OC)c(OC)c(OC)c1)(c1ccccc1)N(C)C (stereo not drawn) | > 30 µM
17) CCCN(CCC)C(=O)Cc1c(-c2ccc(Cl)cc2)nc2ccc(Cl)cn12 | > 30 µM
18) CCC[C@H](NC(=O)[C@@H]1[C@H]2CCC[C@H]2CN1C(=O)[C@@H](NC(=O)[C@@H](NC(=O)c1cnccn1)C1CCCCC1)C(C)(C)C)C(=O)C(=O)NC1CC1 | > 10 µM

====

measurement target: Histamine H2 receptor (Homo sapiens, UniProt P25021); also: assay procedure not described here
Sequence (P25021 whole entry): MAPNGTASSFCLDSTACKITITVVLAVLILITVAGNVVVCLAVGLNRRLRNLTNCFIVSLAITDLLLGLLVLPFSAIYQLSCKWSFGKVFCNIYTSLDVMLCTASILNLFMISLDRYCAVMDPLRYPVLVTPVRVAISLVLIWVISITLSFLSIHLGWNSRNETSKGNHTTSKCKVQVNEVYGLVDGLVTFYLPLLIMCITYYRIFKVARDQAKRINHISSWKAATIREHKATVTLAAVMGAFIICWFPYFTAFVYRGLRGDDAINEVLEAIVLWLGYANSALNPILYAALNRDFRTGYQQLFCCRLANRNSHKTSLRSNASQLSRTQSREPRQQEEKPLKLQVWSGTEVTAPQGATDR
Type: functional, cell-based
Some compounds, each annotated with its measured AC50.
readout: AC50

1. CO[C@H]1/C=C/O[C@@]2(C)Oc3c(C)c(O)c4c(O)c(c(/C=N/N5CCN(C)CC5)c(O)c4c3C2=O)NC(=O)/C(C)=C\C=C\[C@H](C)[C@H](O)[C@@H](C)[C@@H](O)[C@@H](C)[C@H](OC(C)=O)[C@@H]1C | > 30 µM
2. C#C[C@]1(O)CC[C@H]2[C@@H]3CCC4=CC(=O)CC[C@@H]4[C@H]3C(=C)C[C@@]21CC | > 30 µM
3. C[C@]12C=CC(=O)N[C@@H]1CC[C@@H]1[C@@H]2CC[C@]2(C)[C@@H](C(=O)Nc3cc(C(F)(F)F)ccc3C(F)(F)F)CC[C@@H]12 [DUTASTERIDE] | > 10 µM
